Tested on: CEM cells HIV-1 protection, formazan growth assay
EXPERIMENTAL DETAILS: NCI AIDS Antiviral Assay
TEST CONTEXT: measured here: growth of uninfected CEM cells
Field: IC50. Provide a value for each of the molecules that follow.
Answers are plain numbers, in µM.

* CCOC(=O)C1=CN(Cc2ccccc2)C2ON=C(c3ccc(Cl)cc3)C2C1 (stereo not given) | 31.6
* CCCCCNC(=O)Sc1ccccc1C(=O)N[C@H](C)C(N)=O | 123
* Cc1coc2c1C(=O)C(=O)c1c-2ccc2c1CCCC2(C)C | 25.7
* O=C1C2(Cl)C3(Cl)C4(OCCO4)C4(Cl)C2(Cl)C2(Cl)C1(Cl)C3(Cl)C42Cl (stereo not given) | 28.8

Request: Value lookup for IC50; key = COc1ccc(N(C)C(=O)N(C)c2ccc([N+](=O)[O-])cc2)cc1
Result: 9.33

----------
System: CEM cells HIV-1 protection, formazan growth assay
EXPERIMENTAL DETAILS: NCI AIDS Antiviral Assay
TEST CONTEXT: measured here: growth of uninfected CEM cells
OBSERVED PROPERTY: pIC50
Give bare numbers, as −log10 of the molar value.

- CCCCCCCCCCCCSC(=S)c1c(C)[nH]n(-c2ccccc2)c1=O: 4.80
- CN(C)CCOc1ccc(-c2c(Oc3ccccc3)c(=O)oc3ccccc23)cc1: 5.06
- Nc1c(S(=O)(=O)O)cc(S(=O)(=O)O)c2ccc(N=Nc3ccc(CCc4ccc(N=Nc5ccc6c(S(=O)(=O)O)cc(S(=O)(=O)O)c(N)c6c5O)cc4S(=O)(=O)O)c(S(=O)(=O)O)c3)c(O)c12: 3.86

Now take the following molecule into account.
Request: Value lookup for pIC50; key = COc1ccc(C(=O)NO)cc1
Result: 4.60

----------
System: CEM cells HIV-1 protection, formazan growth assay
EXPERIMENTAL DETAILS: NCI AIDS Antiviral Assay
TEST CONTEXT: measured here: growth of uninfected CEM cells
pIC50: −log10 of the molar value.
Please note: y applies when pIC50 is 4 or greater, and n applies otherwise.

Observe how each entry below is paired with its result.
• c1ccc([P+](c2ccccc2)(c2ccccc2)C2c3ccccc3-c3ccccc32)cc1 = y
• C=CCN(N=O)C(=O)NCCCC(NC(C)=O)C(=O)NCc1ccccc1 (configuration not stated) = n
• CCCCCCCCCCCCCCCCCCOP(=O)([O-])OC1CC[N+](C)(C)CC1 = y
• COc1ccc2nc3cc(Cl)ccc3c(NCCCN3CCN(CCCNc4ccc5nnn6c7ccccc7c(=O)c4c56)CC3)c2c1 = y
• CCOC(=O)C(=CN1CC(=O)NC1=S)C(=O)OCC = n
• CC(NC(=O)C(N)CCC(=O)O)C(=O)NCP(=O)(O)O (configuration not stated) = n
• O=C(Nc1ccc([N+](=O)[O-])cc1)N(c1ccccn1)c1ccccn1 = n
• C[C@@]1(O)C2CC3CC1(c1ccccc1)CC(/C3=N/O)/C2=N\O (some centres not stated) = n

Request: pIC50 >= 4 for COc1ccc(/C=C(\C#N)c2ccc(C)cc2)cc1OC ?
Result: y

Request: pIC50 >= 4 for Brc1ccc2c(-c3csc(-c4c[nH]c5ccccc45)n3)c[nH]c2c1 ?
Result: y

Request: pIC50 >= 4 for N#CC1(O)Cc2ccccc2C1 ?
Result: n

Request: pIC50 >= 4 for C1CC2=C(C1)[Se]C(=C1Sc3nsnc3S1)[Se]2 ?
Result: n

Request: pIC50 >= 4 for O=S(CCCl)c1c2ccccc2nc2ccccc12 (configuration not stated) ?
Result: y

Request: pIC50 >= 4 for CC(NC(=O)OC(C)(C)C)C(=O)C(N)=O (configuration not stated) ?
Result: n

Request: pIC50 >= 4 for CC(C#N)(c1ccccc1)N(CCc1ccccc1)C(=O)Oc1ccccc1 (configuration not stated) ?
Result: n

Request: pIC50 >= 4 for S=c1n(-c2ccc(Cl)cc2)c2nc3ccccc3nc(/c2=N\Nc2ccccc2)n1-c1ccc(Br)cc1 ?
Result: y

Request: pIC50 >= 4 for CC(=O)N1N=C(c2ccc3ccccc3c2O)CC1c1ccc(Cl)cc1Cl (configuration not stated) ?
Result: y

Request: pIC50 >= 4 for O=[N+]([O-])c1ccccc1SCc1ccccc1 ?
Result: y

Request: pIC50 >= 4 for CNc1cc(OCc2ccccc2)c(OC)cc1C(=O)N1CCC[C@H]1CO ?
Result: y

Every entry's value here was drawn from PubChem BioAssay AID179.
